- targetDesc: T1, CRBN, Q96SW2;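 further: pooled lentiviral library of zinc finger degron-EGFP fusions in mCherry-positive Jurkat cells, FACS-sorted after compound exposure, with degron abundance counted by next-generation sequencing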
- T1 chain: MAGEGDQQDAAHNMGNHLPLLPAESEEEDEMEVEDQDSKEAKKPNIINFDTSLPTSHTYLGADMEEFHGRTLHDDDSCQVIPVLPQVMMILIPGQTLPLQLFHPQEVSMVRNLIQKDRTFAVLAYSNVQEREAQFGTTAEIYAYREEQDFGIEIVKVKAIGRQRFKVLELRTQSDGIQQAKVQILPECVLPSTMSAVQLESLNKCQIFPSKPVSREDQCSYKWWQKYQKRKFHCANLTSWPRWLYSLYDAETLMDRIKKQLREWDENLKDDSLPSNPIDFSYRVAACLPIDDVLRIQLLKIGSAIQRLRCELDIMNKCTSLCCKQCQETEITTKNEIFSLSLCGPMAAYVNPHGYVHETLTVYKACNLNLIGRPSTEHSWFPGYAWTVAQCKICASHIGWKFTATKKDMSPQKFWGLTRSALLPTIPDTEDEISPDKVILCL
- assayNotes: log2 fold change of degron read counts, EGFP-low vs EGFP+ sorted cells (limma voom), compound-induced degradation; higher = more compound-induced degradation of the degron-EGFP fusion; degrons are variants of IKZF1/3 zinc finger 2; compound dose not given here
- measurementParameters: Jurkat; 18 h; compound: thalidomide
In all, about 8,300 sequences were measured (“log2 fold change of degron read counts, EGFP-low vs EGFP+ sorted cells (limma voom), compound-induced degradation”: median about -1.1, highest 2% from about 3.2 on). The sample as a whole holds a higher share of the highest values than the screen did.
readoutKind: log2 fold change of degron read counts

>>> reportedresult("FQCEQCGACFTQKGNLLRHIKL [46F_47Q_49E_50Q_52G_53A_54C_55F_67L_, Q9UKT9]")
3.02
>>> reportedresult("FACPVCGARFTQKGNLLRHIKL [46F_47A_49P_50V_52G_53A_54R_55F_67L_, Q9UKT9]")
1.06
>>> reportedresult("FRCEVCGADFTQKGNLLRHIKL [46F_47R_49E_50V_52G_53A_54D_55F_67L_, Q9UKT9]")
0.331
>>> reportedresult("FCCEVCGAPFTQKGNLLRHIKL [46F_47C_49E_50V_52G_53A_54P_55F_67L_, Q9UKT9]")
1.26
>>> reportedresult("FVCPVCGARFTQKGNLLRHIKL [46F_47V_49P_50V_52G_53A_54R_55F_67L_, Q9UKT9]")
2.8
>>> reportedresult("FQCEVCGAPFTQKGNLLRHIKL [46F_47Q_49E_50V_52G_53A_54P_55F_67L_, Q9UKT9]")
3.53
>>> reportedresult("FHCPVCGARFTQKGNLLRHIKL [46F_47H_49P_50V_52G_53A_54R_55F_67L_, Q9UKT9]")
0.937
